Substrate: PET
Assay: Proxy for plastic degradation [Released monomer concentration (HPLC/LC-MS) (MHET+TPA)]
Details: pH 7; 40 °C; part of the chain shown
Parameter Measured: Proxy for plastic degradation (mM)
Just the number in mM, nothing appended.

Examples from the recorded data:
>  <Protein>
unnamed (protein) QTNPYARGPNPTAASLEASAGPFTVRSFTVSRPSGYGAGTVYYPTNAGGTVGAIAIVPGYTARQSSIKWWGPRLASHGFVVITIDTNSTLDQPSSRSSQQMAALRQVASLNGTSSSPIYGKVDTARMGVMGWSMGGGGSLISAANNPSLKAAAPQAPWDSSTNFSSVTVPTLIFACENDSIAPVNSSALPIYDSMSRNAKQFLEINGGSHSCANSGNSNQALIGKKGVAWMKRFMDNDTRYSTFACENPNSTRVSDFRTANCSLEHHHHHH

>  <Parameter Measured>
Proxy for plastic degradation

>  <Unit Tag>
mM

>  <Result>
0

$$$$
>  <Protein>
unnamed (protein) QTNPYARGPNPTAASLEASAGPFTVRSFTVSRPSGYGAGTVYYPTNAGGTVGAIAIVPGYTARQSSIKWWGPRLASHGFVVITIDTNSTFDYPSSRSSQQMAALRQVASLNGDSSSPIYGKVDTARMGVMGHSMGGGASLRSAANNPSLKAAIPQAPWDSQTNFSSVTVPTLIFACENDSIAPVNSHALPIYDSMSRNAKQFLEINGGSHSCANSGNSNQALIGKKGVAWMKRFMDNDTRYSTFACENPNSTAVSDFRTANCSLEHHHHHH

>  <Parameter Measured>
Proxy for plastic degradation

>  <Unit Tag>
mM

>  <Result>
0.3

$$$$
>  <Protein>
unnamed (protein) QTNPYARGPNPTAASLEASAGPFTVRSFTVSRPSGYGAGTVYYPTNAGGTVGAIAIVPGYTARQSSIKWWGPRLASHGFVVITIDTNSTLDQPESRSSQQMAALRQVASLNGTSSSPIYGKVDTARMGVMGWSMGGGGSLISAANNPSLKAAAPQAPWHSSTNFSSVTVPTLIFACENDSIAPVNSSALPIYDSMSRNAKQFLEINGGSHSCANSGNSNQALIGKKGVAWMKRFMDNDTRYSTFACENPNSTAVSDFRTANCSLEHHHHHH

>  <Parameter Measured>
Proxy for plastic degradation

>  <Unit Tag>
mM

>  <Result>
9

$$$$

Turning now to a further record.
Enquiry: Need Proxy for plastic degradation, item unnamed (protein) QTNPYARGPNPTAASLEASAGPFTVRSFTVSRPSGYGAGTVYYPTNAGGTVGAIAIVPGYTARQSSIKWWGPRLASHGFVVITIDTNSTLDQPESRSSQQMAALRQVASLNGTSSSPIYGKVDTARMGVMGWSMGGGGSLISAANNPSLKAAAPQAPWHSSTNFSSVTVPTLIFACENDSIAPVNSSALPIYDSMSQNAKQFLEIKGGSHSCANSGNSNQALIGKKGVAWMKRFMDNDTRYSTFACENPNSTAVSDFRTANCSLEHHHHHH
Return: 12
